# TEST TARGET: T1, human CD112R expressed on Jurkat cells (human, UniProt Q6DKI7 1-326)
# T1 construct: whole, on cells; Used for both Jurkat-CD112R OE cells and wild type Jurkat cells; which cells is said under assay; also called PVRIG; Jurkat-CD112R OE
# T1 sequence (looked up): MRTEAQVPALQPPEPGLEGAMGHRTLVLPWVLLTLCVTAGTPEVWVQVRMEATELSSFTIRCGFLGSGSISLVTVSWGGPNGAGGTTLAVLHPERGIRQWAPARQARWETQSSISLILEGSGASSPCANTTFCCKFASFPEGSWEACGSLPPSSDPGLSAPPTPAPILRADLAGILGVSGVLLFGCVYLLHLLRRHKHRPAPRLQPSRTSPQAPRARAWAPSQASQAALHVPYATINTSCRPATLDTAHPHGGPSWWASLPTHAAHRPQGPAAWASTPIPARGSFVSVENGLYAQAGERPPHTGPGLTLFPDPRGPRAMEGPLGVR
# PROTOCOL DETAILS: flow cytometry competition on Jurkat-CD112R OE cells; competitor biotinylated his-tagged human CD112
Measured IC50 values are reported for all entries that follow.
Your answer is read as ng/mL, so omit the unit and give the number.

Worked cases, answers included:
1. Antibody 10 (antibody, V domains shown, Purified as IgG; compared with an IgG1 isotype control and detected with anti-human IgG Fc; also called antibody clone number 10; clone 10) VH: EVQLVESGGGLVQPGRSLRLSCAASGFTFDDYAVHWVRQAPGKGLEWVSGISWSSGLIGYADSVKGRFTISRDNAKNSLYLQMNSLRAEDTAVYYCAKGPPTYQDYFDLWGRGTLVTVSS VL: EIVLTQSPATLSLSPGERATLSCRASQSVSRYLAWYQQKPGQAPRLLIYDASNRATGIPARFSGSGSGTDFTLTISSLEPEDFAVYYCQQVSFFPPITFGGGTKVEIK
0.69
2. Antibody 38 (antibody, V domains shown, Purified as IgG; compared with an IgG1 isotype control and detected with anti-human IgG Fc; also called antibody clone number 38; clone 38) VH: EVQLLESGGGLVQPGGSLRLSCAASGFTFSGHLMSWVRQAPGKGLEWVSAISGSAGETYYADSVKGRFTISRDNSKNTLYLQMNSLRAEDTAVYYCARDAYYDDWSGWADWYFDLWGRGTLVTVSS VL: EIVLTQSPATLSLSPGERATLSCRASQSVSRYLAWYQQKPGQAPRLLIYDASNRATGIPARFSGSGSGTDFTLTISSLEPEDFAVYYCQQVSLLPPTFGGGTKVEIK
0.19

For the next question, use this binder.
Consider the binder Antibody 32 (antibody, V domains shown, Purified as IgG; compared with an IgG1 isotype control and detected with anti-human IgG Fc; also called antibody clone number 32; parent clone 32) VH: QVQLVQSGAEVKKPGSSVKVSCKASGGTFSSYAISWVRQAPGQGLEWMGGIIPISGTANYAQKFQGRVTITADESTSTAYMELSSLRSEDTAVYYCARDTGRGYTRHFWFDPWGQGTLVTVSS VL: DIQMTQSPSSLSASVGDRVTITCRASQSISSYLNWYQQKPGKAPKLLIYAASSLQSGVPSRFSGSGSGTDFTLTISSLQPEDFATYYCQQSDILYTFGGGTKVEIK and give its measured IC50. 23.6

Entry source: patent US20250051449A1
